- ASSAYED_TARGET: Glutamate NMDA receptor
- ASSAY_SUMMARY: Binding affinity towards PCP site of the NMDA receptor was measured by displacement of […] in […]
- Format: tissue-based, Brain
MEASURE_NAME: IC50 (nM)
Lab book: enter the figure in nM, no units written.

Check out these entries, answers already filled in.
C=CCNC12CCCCC1CCc1ccccc12 (stereo not drawn) | 86
CN[C@@]12CCCCC1CCc1ccccc12 (stereo partly drawn) | 41.5

Ask: Which IC50 reading was recorded for the molecule NC12CC=CCC1CSc1ccccc12 (stereo not drawn) ?
Result: 101

Ask: Which IC50 reading was recorded for the molecule CNC12CCCCC1COc1ccccc12 (stereo not drawn) ?
Result: 113

Ask: Which IC50 reading was recorded for the molecule CNC12CC=CCC1CCc1sccc12 (stereo not drawn) ?
Result: 57

Ask: Which IC50 reading was recorded for the molecule CN[C@]12CCCCC1CCc1ccccc12 (stereo partly drawn) ?
Result: 7.47

###

Listing: logD of selected compounds
- ASSAY_SUMMARY: Partition coefficient was measured using a standard shake flask (SF) method at pH 7.4.
- Format: physicochemical
- TEST_CONDITIONS: octanol/water
Reply briefly: the number, and no unit.

Check out these entries, answers already filled in.
CNC12CCCCC1CCc1c(C)cc(OC)cc12 (configuration not stated) | 1.72
CC1CC2CC=CCC2(N)c2ccccc21 (configuration not stated) | 1.89

Ask: Which logD reading was recorded for the compound CCNC12CCCCC1CCc1ccccc12 (configuration not stated) ?
Result: 1.15

###

- Organism: Mus musculus
- ASSAY_SUMMARY: Testing for ataxia was done by using an inverted screen technique
- Assay type: functional
MEASURE_NAME: Ataxia (mg/kg)
Lab book: enter the figure in mg/kg, no units written.

CNC12CC=CCC1CCc1ccccc12 (configuration not stated) | 0.6
NC12CCCCC1CCc1sccc12 (configuration not stated) | 3
CNC12CCCCC1CCc1ccc(O)cc12 (configuration not stated) | 0.58
CNC12CCCCC1COc1ccccc12 (configuration not stated) | 0.63

Proceeding to the next molecule to report its Ataxia.
Ask: Which Ataxia reading was recorded for the molecule CNC12CC=CCC1CSc1ccccc12 (configuration not stated) ?
Result: 1.8

###

- ASSAY_SUMMARY: Partition coefficient (logP) (HPLC)
- Format: physicochemical
- TEST_CONDITIONS: octanol/water
Hi, to clarify the labels: YES covers logP from 3 upward, NO covers anything below 3.

Reference set, count: 2
CNC12CCCCC1CC(O)c1ccccc12 (configuration not stated) | NO
CNC12CCCCC1CC(=O)c1ccccc12 (configuration not stated) | NO

Ask: Kindly determine if logP recorded for CNC12CCCCC1CCc1c(C)cc(OC)cc12 (configuration not stated) is above or exactly 3.
Result: YES

Ask: Kindly determine if logP recorded for CNC12CCCCC1COc1ccccc12 (configuration not stated) is above or exactly 3.
Result: YES

Ask: Kindly determine if logP recorded for CC1CC2CC=CCC2(N)c2ccccc21 (configuration not stated) is above or exactly 3.
Result: YES

Ask: Kindly determine if logP recorded for NC12CC=CCC1CCc1ccccc12 (configuration not stated) is above or exactly 3.
Result: NO

Ask: Kindly determine if logP recorded for CNC12CCCCC1CSc1ccccc12 (configuration not stated) is above or exactly 3.
Result: YES

Ask: Kindly determine if logP recorded for CNC12CCCCC1CCc1ccc(OC)cc12 (configuration not stated) is above or exactly 3.
Result: YES

Ask: Kindly determine if logP recorded for CNC12CC(O)CCC1CCc1ccccc12 (configuration not stated) is above or exactly 3.
Result: NO

Ask: Kindly determine if logP recorded for CCNC12CCCCC1CCc1ccccc12 (configuration not stated) is above or exactly 3.
Result: YES

Ask: Kindly determine if logP recorded for CNC12CCCCC1CCc1ccccc12 (configuration not stated) is above or exactly 3.
Result: YES

Ask: Kindly determine if logP recorded for CC1CC2CCCCC2(N)c2ccccc21 (configuration not stated) is above or exactly 3.
Result: YES

Ask: Kindly determine if logP recorded for CNC12CCC(CN)CC1CCc1ccccc12 (configuration not stated) is above or exactly 3.
Result: NO

Ask: Kindly determine if logP recorded for CNC12CCCCC1CCc1ccc(O)cc12 (configuration not stated) is above or exactly 3.
Result: NO

###

- ASSAYED_TARGET: Glutamate NMDA receptor
- ASSAY_SUMMARY: Ability to inhibit glutamate induced accumulation of [45 [Ca2+]] in cultured rat cortical neurons
- Type: functional
Category scheme (IC50): low (below 400 nM), medium (400 nM to below 1000 nM), high (1000 nM or more)

Reference set, count: 10
COc1ccc2c(c1)C1(N)CCCCC1CC2 (centres undefined) | medium
CN[C@]12CCCCC1CCc1ccccc12 (some centres undefined) | low
CNC12CC=CCC1CSc1ccccc12 (centres undefined) | medium
COc1ccc2c(c1)C1(N)CC=CCC1CC2 (centres undefined) | medium
NC12CCCCC1CCc1ccccc12 (single isomer, unassigned; form 1) | medium
NC12CCCCC1CCc1ccccc12 (single isomer, unassigned; form 2) | high
CNC12CCCCC1CCc1ccc(O)cc12 (centres undefined) | low
CNC12CCCCC1CCc1ccc(OC)cc12 (centres undefined) | high
CNC12CCCCC1CCc1sccc12 (centres undefined) | low
NC12CC=CCC1CSc1ccccc12 (centres undefined) | high

Ask: Place this compound in its band: CNC12CCCCC1CCc1ccccc12 (centres undefined)
Result: low

Ask: Place this compound in its band: C=CCNC12CCCCC1CCc1ccccc12 (centres undefined)
Result: medium

Ask: Place this compound in its band: NC12CCCCC1CSc1ccccc12 (centres undefined)
Result: high

###

- ASSAYED_TARGET: Glutamate NMDA receptor
- ASSAY_SUMMARY: Binding affinity towards PCP site of the NMDA receptor was measured by displacement of […] in […]
- Assay type: tissue-based, Brain
pIC50: −log10 of the molar value.
Hi, to clarify the labels: 1 covers pIC50 from 7 upward, 0 covers anything below 7.

Reference set, count: 5
NC12CCCCC1CCc1sccc12 (stereo not drawn) | 1
CNC12CCCCC1CCc1ccc(OC)cc12 (stereo not drawn) | 1
NC12CCCCC1COc1ccccc12 (stereo not drawn) | 0
CNC12CCCCC1CCc1ccccc12 (stereo not drawn) | 1
NC12CCCCC1CCc1ccccc12 (stereo not drawn) | 1

Ask: Kindly determine if pIC50 recorded for CNC12CCCCC1CCc1c(C)cc(OC)cc12 (stereo not drawn) is above or exactly 7.
Result: 1

Ask: Kindly determine if pIC50 recorded for CNC12CC=CCC1CCc1ccccc12 (stereo not drawn) is above or exactly 7.
Result: 1

Ask: Kindly determine if pIC50 recorded for NC1c2ccccc2CCC12CCCCC2 (stereo not drawn) is above or exactly 7.
Result: 0

###

Listing: inhibition of selected molecules
- ASSAYED_TARGET: Glutamate NMDA receptor (Rattus norvegicus) (UniProt P35439+Q00959+Q00960+Q00961+Q62645+Q8VHN2+Q9R1M7)
- ASSAY_SUMMARY: Percent inhibition at PCP site of NMDA receptor complex was measured by displacement of […] in whole rat brain homogenate at 10 E-7 M
- Format: tissue-based
Number plus unit, in that order.

Check out these entries, answers already filled in.
NCC1CCC2(N)c3ccccc3CCC2C1 (centres undefined) | 1%
CC1(N)c2ccccc2CCC12CCCC2 (centres undefined) | 5%

Ask: Which inhibition reading was recorded for the molecule CNC12CC=CCC1CC(C)(C)c1ccccc12 (centres undefined) ?
Result: 0%

Ask: Which inhibition reading was recorded for the molecule CNC1(C)c2ccccc2CCC12CCCC2 (centres undefined) ?
Result: 5%

Ask: Which inhibition reading was recorded for the molecule CNC12CCC(CN)CC1CCc1ccccc12 (centres undefined) ?
Result: 8%

Ask: Which inhibition reading was recorded for the molecule NC1c2ccccc2CCC12CCCC2 (centres undefined) ?
Result: 8%

###

- ASSAYED_TARGET: Glutamate NMDA receptor (Rattus norvegicus) (UniProt P35439+Q00959+Q00960+Q00961+Q62645+Q8VHN2+Q9R1M7)
- ASSAY_SUMMARY: Evaluated in vivo for its NMDA antagonist activity by the inhibition of NMDA-induced lethality in mice
- Assay type: functional, organism-based
- TEST_CONDITIONS: Mus musculus; target entry is the homologue from another species
Lab note - cut at 4 mg/kg for ED50: Y if strictly below, N if not.

Ask: Just wondering, is ED50 of CN(C)C12CCCCC1CCc1ccccc12 (stereo not given) below 4 mg/kg?
Result: Y

Ask: Just wondering, is ED50 of NC12CC=CCC1CCc1ccc(O)cc12 (stereo not given) below 4 mg/kg?
Result: N

Ask: Just wondering, is ED50 of NC12CC=CCC1CCc1ccccc12 (stereo not given) below 4 mg/kg?
Result: N

Ask: Just wondering, is ED50 of CN[C@]12CCCCC1CCc1ccccc12 (stereo not given in full) below 4 mg/kg?
Result: Y

Ask: Just wondering, is ED50 of CNC1(c2ccccc2Cl)CCCCC1=O (stereo not given) below 4 mg/kg?
Result: N

Measured values drawn from ChEMBL document CHEMBL1126730 for this set.
